B1: PFV-Gag-NtD (amino terminal domain of Prototypic Foamy Virus Gag, residues 1-179) [Prototypic foamy virus (PFV)] / PFV Env leader peptide residues 1-20 [Prototypic foamy virus (PFV)] (parent)
chain 1: MASGSNVEEYELDVEALVVILRDRNIPRNPLHGEVIGLRLTEGWWGQIERFQMVRLILQDDDNEPLQRPRYEVIQRAVNPHTMFMISGPLAELQLAFQDLDLPEGPLRFGPLANGHYVQGDPYSSSYRPVTMAETAQMTRDELEDVLNTQSEIEIQMINLLELYEVETRALRRQLAERS
chain 2: MAPPMTLQQWIIWKKMNKAH

Variants of: B1
ASSAY COMMENT: sedimentation velocity analytical ultracentrifugation
CONDITION SET: with PFV Env leader peptide residues 1-20 [Prototypic foamy virus (PFV)]; 75 µM equimolar mixtures of Gag-NtDs with Env(1-20); read off a plot

{"MUTATION LIST": "chain 1 V14S L21S", "Ka": "0.07 10^5 M^-1"}
{"MUTATION LIST": "chain 1 V18S L21S", "Ka": "0.16 10^5 M^-1"}
{"MUTATION LIST": "chain 1 V18S", "Ka": "0.6 10^5 M^-1"}

Reference source for all entries: paper PMC3649970
